Ref: patent EP4339209A1

- TARGET_SYSTEM: recombinant human GITR (Cat No. 13643-H08H, Lot No. LC12JA2509, Sino Biological) (human) (UniProt Q9Y5U5)
- ASSAY_INFO: SPR Biacore 8K, single-cycle kinetics, IgG in supernatant captured on Protein A, GITR as analyte
REPORTED_PROPERTY: Relative KD (fold vs VH0/VL0)
# output: bare number, no unit

anti-GITR 51B VH4/VL4 humanized antibody (human IgG1, kappa) (antibody, V domains shown) VH: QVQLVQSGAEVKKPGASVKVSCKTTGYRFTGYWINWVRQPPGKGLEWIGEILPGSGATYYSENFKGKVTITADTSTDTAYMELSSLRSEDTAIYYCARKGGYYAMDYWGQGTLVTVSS VL: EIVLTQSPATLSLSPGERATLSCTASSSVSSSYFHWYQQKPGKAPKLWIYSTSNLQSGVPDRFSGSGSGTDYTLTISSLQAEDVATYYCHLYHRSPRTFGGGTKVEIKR | 1.7

Reported Relative KD (fold vs VH0/VL0) ( anti-GITR 51B VH0/VL1 antibody (human IgG1, kappa) (antibody, V domains shown) VH: QVQLQQSGAELMKPGASVKLSCKTTGYRFTGYWIEWVKQRPGHGLEWIGEILPGSGATYYSENFKGKATFTADTSSNTAYMQVSSLTTGDSAIYYCARKGGYYAMDYWGQGTSVTVSS VL: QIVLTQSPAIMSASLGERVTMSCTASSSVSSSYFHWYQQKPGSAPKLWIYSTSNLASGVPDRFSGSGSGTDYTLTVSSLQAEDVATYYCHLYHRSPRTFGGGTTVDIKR ) = 0.9

Reported Relative KD (fold vs VH0/VL0) ( anti-GITR 51B VH1/VL0 antibody (human IgG1, kappa) (antibody, V domains shown) VH: QVQLVQSGAELKKPGASVKLSCKTTGYRFTGYWIEWVRQPPGKGLEWIGEILPGSGATYYSENFKGKATITADTSTNTAYMEVSSLRSGDSAIYYCARKGGYYAMDYWGQGTSVTVSS VL: QIVLTQSPAIMSASLGERVTMTCTASSSVSSSYFHWYQQKPGSSPKLWIYSTSNLASGVPARFSGSGSGTSYSLTVSSLEAEDAATYYCHLYHRSPRTFGGGTTLDIKR ) = 1.9

Reported Relative KD (fold vs VH0/VL0) ( anti-GITR 51B VH2/VL5 humanized antibody (human IgG1, kappa) (antibody, V domains shown) VH: QVQLVQSGAEVKKPGASVKLSCKTTGYRFTGYWIEWVRQPPGKGLEWIGEILPGSGATYYSENFKGKATITADTSTNTAYMEVSSLRSEDTAIYYCARKGGYYAMDYWGQGTLVTVSS VL: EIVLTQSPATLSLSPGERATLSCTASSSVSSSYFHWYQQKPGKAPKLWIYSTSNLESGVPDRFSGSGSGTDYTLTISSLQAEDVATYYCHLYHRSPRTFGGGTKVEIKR ) = 2.3

Reported Relative KD (fold vs VH0/VL0) ( anti-GITR 51B VH3/VL5 humanized antibody (human IgG1, kappa) (antibody, V domains shown) VH: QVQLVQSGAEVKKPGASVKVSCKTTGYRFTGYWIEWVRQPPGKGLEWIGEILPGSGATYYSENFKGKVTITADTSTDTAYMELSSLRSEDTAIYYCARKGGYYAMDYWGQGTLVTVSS VL: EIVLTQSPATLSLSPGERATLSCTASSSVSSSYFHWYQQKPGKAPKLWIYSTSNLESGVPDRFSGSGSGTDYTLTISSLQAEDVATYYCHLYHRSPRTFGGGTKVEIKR ) = 1.6

Reported Relative KD (fold vs VH0/VL0) ( anti-GITR 51B VH1/VL4 humanized antibody (human IgG1, kappa) (antibody, V domains shown) VH: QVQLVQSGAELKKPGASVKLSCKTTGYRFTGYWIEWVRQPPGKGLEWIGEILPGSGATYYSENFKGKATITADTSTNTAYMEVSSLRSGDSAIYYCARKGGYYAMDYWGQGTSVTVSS VL: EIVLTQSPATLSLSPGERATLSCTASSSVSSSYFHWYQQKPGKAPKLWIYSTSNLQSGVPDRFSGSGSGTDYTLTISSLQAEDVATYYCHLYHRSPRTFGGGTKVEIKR ) = 2.3

Reported Relative KD (fold vs VH0/VL0) ( anti-GITR 51B VH1/VL5 humanized antibody (human IgG1, kappa) (antibody, V domains shown) VH: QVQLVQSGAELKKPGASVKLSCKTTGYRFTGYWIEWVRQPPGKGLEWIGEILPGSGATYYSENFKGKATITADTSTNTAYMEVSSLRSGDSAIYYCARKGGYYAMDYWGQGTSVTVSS VL: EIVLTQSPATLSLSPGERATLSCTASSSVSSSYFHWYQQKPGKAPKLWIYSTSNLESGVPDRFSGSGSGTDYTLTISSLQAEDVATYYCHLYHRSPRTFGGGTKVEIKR ) = 2.5
